I'd appreciate it if you could supply C-kinase ³²P incorporation % values for the items below.
- System: C-kinase
- test-description: Inhibition of C-kinase activity (liposome method, histone III-S, 32P-ATP)
- Assay type: biochemical, human
- measurement-context: lipid added at 50 »M; relative to phosphatidyl-serine, diolein, Ca⁺² control = 100; 50 µM
Provide only the numeric value, understood in %.

Which C-kinase ³²P incorporation % value is on record for "CCCCCCCCCCCCC/C=C/[C@H](O)[C@@H](CO)N(C)C" ? 28

Quick one: CCCCCCCCCCCCC/C=C/[C@@H](O)[C@@H](N)CO [D-erythro-sphingenine, D(+)-erythro-sphingenine, reference compound] 47

Quick one: "CCCCCCCCCCCCC/C=C/[C@@H](O)[C@H](CO)N(C)C" 13

Quick one: CCCCCCCCCCCCC/C=C/[C@H](O)[C@H](N)CO [L-erythro-sphingenine, L(-)-erythro-sphingenine, reference compound] 47

###

- Tested on: C-kinase
- test-description: Inhibition of C-kinase activity (liposome method, histone III-S, 32P-ATP)
- Type: biochemical, human
- Set-up: unit: cpm
- measurement-context: lipid added at 50 »M
I'd appreciate it if you could supply C-kinase ³²P incorporation values for the items below.
Enter a number only.

Which C-kinase ³²P incorporation value is on record for "CCCCCCCCCCCCC/C=C/[C@H](O)[C@@H](CO)N(C)C" ? 11020

Quick one: CCCCCCCCCCCCC/C=C/[C@H](O)[C@H](N)CO [L-erythro-sphingenine, L(-)-erythro-sphingenine, reference compound] 18549

Quick one: "CCCCCCCCCCCCC/C=C/[C@@H](O)[C@H](CO)N(C)C" 5254

Quick one: CCCCCCCCCCCCC/C=C/[C@@H](O)[C@@H](N)CO [D-erythro-sphingenine, D(+)-erythro-sphingenine, reference compound] 18754
